Would you mind telling me the reported normalized thallium flux (F/F0 slope) of each entry?
Molecular target: ATP-sensitive inward rectifier potassium channel 1 (Homo sapiens) (UniProt P48048)
Sequence (P48048 whole entry, looked up): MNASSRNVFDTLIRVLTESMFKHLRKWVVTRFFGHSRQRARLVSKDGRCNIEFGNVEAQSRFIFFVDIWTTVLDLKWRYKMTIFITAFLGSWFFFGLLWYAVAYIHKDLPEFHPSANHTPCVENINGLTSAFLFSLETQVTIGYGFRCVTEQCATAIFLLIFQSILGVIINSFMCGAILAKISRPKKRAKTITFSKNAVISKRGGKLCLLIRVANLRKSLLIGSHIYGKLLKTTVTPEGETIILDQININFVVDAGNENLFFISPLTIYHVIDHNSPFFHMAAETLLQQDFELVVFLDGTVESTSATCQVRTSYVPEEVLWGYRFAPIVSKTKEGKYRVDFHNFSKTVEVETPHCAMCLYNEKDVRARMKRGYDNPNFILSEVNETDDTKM
Test: retested modulators of human Kir1.1 channel – cell-based, thallium flux, duplicate, resupplied hits, confirmation (AID 1917)
Settings: ROMK thallium flux, fluorescence ratio; at 10 µM; hits give low values
Among all 3,000 compounds or so, about 1,600 (53%) were called active. Roughly 10% stayed inconclusive and do not appear here. The set was probably picked from earlier hits. Only a sample is shown.
Give bare numbers.

STRUCTURE_STRING: O=[N+]([O-])c1cc(Cl)cc(/C=N/NC(=S)Nc2cc(S(=O)(=O)N3CCOCC3)ccc2Cl)c1O
normalized thallium flux (F/F0 slope): 0.0856
//
STRUCTURE_STRING: c1ccc2c(c1)CSc1sccc1C2=C1CCNCC1
normalized thallium flux (F/F0 slope): 0.0498

Please supply normalized thallium flux (F/F0 slope) for each of the following items, keeping them in order.
1. N#Cc1c(N)n(CCOC(=O)c2ccc(Cl)cc2)c2nc3ccccc3nc12
2. CCCCc1nc(NCCN)c(C#N)c2c1CSC(C)(C)C2

1. 0.0672
2. 0.0552

// field: normalized thallium flux (F/F0 slope); key: O=C(Nc1ccccc1-c1ccccc1)c1cccs1 ; value = 0.0658

Every entry's value here was drawn from PubChem BioAssay AID1917.
